Here, each record is paired with measured TGI data.
- Test system: MDA-MB-231 breast
- Experiment description: NCI tumour cell line growth inhibition, 48 h

// below: answered molecules
C1=C[C@]2(CCC13OCCO3)COc1ccccc12    > 100 µM
COc1cc([C@@H]2c3cc4c(cc3[C@@H](Nc3ccc(NC(=O)c5cc(NC(=O)c6cc([N+](=O)[O-])cn6C)cn5C)cc3)[C@H]3COC(=O)[C@H]23)OCO4)cc(OC)c1O    > 64 µM

-- ask Consider the molecule shown here: CCCC1C(C#N)(C#N)C(C#N)=C(N)C1(C)C(C)=O (stereo not drawn) What is its recorded TGI?
-- reply > 100 µM
